test-system: complex of human CDK4 and genetically truncated (1-264) cyclin D3 (Homo sapiens)
test-summary: Inhibition of CDK4/cyclin D retinoblastoma kinase activity (D-type cyclin is truncated D3)
test-context: superscript c: D-type cyclin is truncated D3; read-out: Ki CDK 4/D
Parameter: pKi. Scope: all listed entries.
A value of pKi is the negative decimal logarithm of a concentration given in moles per litre.

[[record]]
compound = "CN(CCC#N)c1ccc(Nc2nc(N)c(C(=O)c3c(F)cccc3F)s2)cc1"
recorded_number = 7.19


Lookup: Fill in the recorded pKi for this compound, with complex of human CDK4 and genetically truncated (1-264) cyclin D3 (Homo sapiens) as test system: Cc1ccsc1C(=O)c1sc(Nc2ccc(N(C)CCN(C)C)cc2)nc1N
Found: 8.00

* * *

Tested on: U2-OS
test-summary: Inhibition of cell growth, MTT assay, U2-OS
Type: cell-based
test-context: Homo sapiens, U2OS
measured-metric: IC50
// return the numeric value with its unit appended

Here is how some compounds turned out for IC50.
[[record]]
compound = "CC1(C)CN(c2ccc(Nc3nc(N)c(C(=O)c4c(F)cccc4F)s3)cc2)CCN1"
measured_metric = "IC50"
result = "0.51 µM"

[[record]]
compound = "NC(=O)c1ccc(Nc2nc(N)c(C(=O)c3c(F)cccc3C(F)(F)F)s2)cc1"
measured_metric = "IC50"
result = "8 µM"

[[record]]
compound = "CNS(=O)(=O)c1ccc(Nc2nc(N)c(C(=O)c3sccc3C)s2)cc1"
measured_metric = "IC50"
result = "3 µM"

[[record]]
compound = "CN1CCN(c2ccc(Nc3nc(N)c(C(=O)c4c(Cl)cc(C(F)(F)F)cc4Cl)s3)cc2)CC1"
measured_metric = "IC50"
result = "7.9 µM"

[[record]]
compound = "Cc1ccsc1C(=O)c1sc(Nc2ccc(C(=O)C3COC(=O)[C@H]3N)cc2)nc1N (some centres unmarked)"
measured_metric = "IC50"
result = "5.5 µM"


Lookup: # input compound: Cc1ccsc1C(=O)c1sc(Nc2ccc3nc[nH]c3c2)nc1N ; wanted: its IC50
Found: 15 µM

Lookup: # input compound: Nc1nc(Nc2ccc(S(N)(=O)=O)cc2)sc1C(=O)c1sc(Br)cc1Br ; wanted: its IC50
Found: 4.1 µM

Lookup: # input compound: Nc1nc(Nc2ccc(N3CCN(CC4CC4)CC3)cc2)sc1C(=O)c1c(F)cccc1F ; wanted: its IC50
Found: 6 µM

* * *

test-system: complex of human CDK4 and cyclin D3 (Homo sapiens, UniProt P11802)
Construct: made in house; host or cells: insect cells, co-infected with baculovirus
Sequence (P11802 whole entry): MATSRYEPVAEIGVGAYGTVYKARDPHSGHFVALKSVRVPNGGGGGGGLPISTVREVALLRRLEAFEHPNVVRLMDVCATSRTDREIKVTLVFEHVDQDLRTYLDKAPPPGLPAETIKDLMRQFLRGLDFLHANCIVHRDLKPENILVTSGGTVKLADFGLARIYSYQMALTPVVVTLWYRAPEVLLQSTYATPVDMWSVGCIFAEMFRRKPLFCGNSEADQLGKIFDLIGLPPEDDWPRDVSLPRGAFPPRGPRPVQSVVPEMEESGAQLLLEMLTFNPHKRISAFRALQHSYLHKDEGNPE
Sequence (P30281 whole entry partner): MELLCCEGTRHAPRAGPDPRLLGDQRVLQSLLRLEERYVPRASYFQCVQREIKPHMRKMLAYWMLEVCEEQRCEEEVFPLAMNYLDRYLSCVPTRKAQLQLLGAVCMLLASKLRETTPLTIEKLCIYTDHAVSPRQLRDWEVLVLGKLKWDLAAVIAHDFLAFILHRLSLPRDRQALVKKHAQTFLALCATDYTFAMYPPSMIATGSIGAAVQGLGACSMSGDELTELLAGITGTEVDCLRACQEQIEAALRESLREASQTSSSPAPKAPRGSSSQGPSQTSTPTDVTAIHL
test-summary: Inhibition of CDK4/cyclin D retinoblastoma kinase activity (D-type cyclin is D3)
Type: biochemical
test-context: superscript a: D-type cyclin is D3; apparent Ki; read-out: Ki CDK 4/D
measured-metric: Ki

[[record]]
compound = "Cc1ccsc1C(=O)c1sc(Nc2ccc(N3CCN(C)CC3)cc2)nc1N"
measured_metric = "Ki"
result = "9 nM"

[[record]]
compound = "Nc1ccc(C(=O)c2sc(Nc3ccccc3)nc2N)cc1"
measured_metric = "Ki"
result = "> 5000 nM"


Lookup: # input compound: COc1ccc(Nc2nc(N)c(C(=O)c3ccccc3I)s2)cc1 ; wanted: its Ki
Found: 27 nM

Lookup: # input compound: Cc1ccsc1C(=O)c1sc(Nc2ccc(S(N)(=O)=O)cc2)nc1N ; wanted: its Ki
Found: 14 nM

Lookup: # input compound: C[C@@H]1CN(c2ccc(Nc3nc(N)c(C(=O)c4c(F)cccc4F)s3)cc2)C[C@H](C)N1 ; wanted: its Ki
Found: 6.3 nM

* * *

test-system: complex of human CDK4 and cyclin D3 (Homo sapiens)
Construct: made in house; host or cells: insect cells, co-infected with baculovirus
test-summary: Inhibition of CDK4/cyclin D retinoblastoma kinase activity (D-type cyclin is D3)
Format: biochemical
test-context: superscript a: D-type cyclin is D3; apparent Ki; read-out: Ki CDK 4/D
Parameter: Ki. Scope: all listed entries.
Numbers only; they are read as nM.

Here is how some molecules turned out for Ki.
[[record]]
compound = "Cc1ncsc1C(=O)c1sc(Nc2ccc(S(N)(=O)=O)cc2)nc1N"
measured_metric = "Ki"
recorded_number = 30

[[record]]
compound = "CCN(CC)c1ccc(Nc2nc(N)c(C(=O)c3ccccc3[N+](=O)[O-])s2)cc1"
measured_metric = "Ki"
recorded_number = 72

[[record]]
compound = "Nc1nc(Nc2ccc(I)cc2)sc1C(=O)c1ccccc1[N+](=O)[O-]"
measured_metric = "Ki"
recorded_number = 310

[[record]]
compound = "Nc1nc(Nc2ccc(N3CCNCC3)cc2)sc1C(=O)c1c(F)cc(F)cc1F"
measured_metric = "Ki"
recorded_number = 15


Now take the following molecule into account.
Lookup: # input molecule: Nc1nc(Nc2ccc3nc[nH]c3c2)sc1C(=O)c1c(F)cccc1F ; wanted: its Ki
Found: 54

* * *

test-system: complex of human CDK4 and cyclin D3 (Homo sapiens)
Construct: made in house; host or cells: insect cells, co-infected with baculovirus
test-summary: Inhibition of CDK4/cyclin D retinoblastoma kinase activity (D-type cyclin is D3)
Format: biochemical
test-context: superscript a: D-type cyclin is D3; apparent Ki; read-out: Ki CDK 4/D
Parameter: Ki. Scope: all listed entries.
Numbers only; they are read as nM.

Lookup: Fill in the recorded Ki for this compound, with complex of human CDK4 and cyclin D3 (Homo sapiens) as test system: CC(C)(C)OC(=O)N1CCN(c2ccc(Nc3nc(N)c(C(=O)c4c(F)cccc4F)s3)cc2)CC1
Found: 103

Lookup: Fill in the recorded Ki for this compound, with complex of human CDK4 and cyclin D3 (Homo sapiens) as test system: Nc1nc(Nc2ccc(S(N)(=O)=O)cc2)sc1C(=O)[C@@H]1CCCN1C(=O)OCc1ccccc1
Found: 38000

Lookup: Fill in the recorded Ki for this compound, with complex of human CDK4 and cyclin D3 (Homo sapiens) as test system: COC(=O)c1cccc(Nc2nc(N)c(C(=O)c3cccc(OC)c3)s2)c1
Found: 2400

Lookup: Fill in the recorded Ki for this compound, with complex of human CDK4 and cyclin D3 (Homo sapiens) as test system: CC(=O)c1ccc(Nc2nc(N)c(C(=O)c3ccccc3[N+](=O)[O-])s2)cc1
Found: 8

* * *

test-system: complex of human CDK4 and cyclin D3 (Homo sapiens)
Construct: made in house; host or cells: insect cells, co-infected with baculovirus
test-summary: Inhibition of CDK4/cyclin D retinoblastoma kinase activity (D-type cyclin is D3)
Type: biochemical
test-context: superscript a: D-type cyclin is D3; apparent Ki; read-out: Ki CDK 4/D
Parameter: pKi. Scope: all listed entries.
A value of pKi is the negative decimal logarithm of a concentration given in moles per litre.

[[record]]
compound = "Cc1ccc(C(=O)c2sc(Nc3ccc4nc[nH]c4c3)nc2N)c(C)c1"
test_system = "complex of human CDK4 and cyclin D3 (Homo sapiens)"
measured_metric = "pKi"
recorded_number = 7.66

[[record]]
compound = "Cc1cccc(C)c1C(=O)c1sc(Nc2ccc3nc[nH]c3c2)nc1N"
test_system = "complex of human CDK4 and cyclin D3 (Homo sapiens)"
measured_metric = "pKi"
recorded_number = 7.25

[[record]]
compound = "Cc1cc(C)c(C(=O)c2sc(Nc3ccc4nc[nH]c4c3)nc2N)c(C)c1"
test_system = "complex of human CDK4 and cyclin D3 (Homo sapiens)"
measured_metric = "pKi"
recorded_number = 7.52

[[record]]
compound = "Cc1cc(N)sc1C(=O)c1sc(Nc2ccc(S(N)(=O)=O)cc2)nc1N"
test_system = "complex of human CDK4 and cyclin D3 (Homo sapiens)"
measured_metric = "pKi"
recorded_number = 6.80

[[record]]
compound = "Nc1nc(Nc2ccc3nc[nH]c3c2)sc1C(=O)c1c(Cl)ccc([N+](=O)[O-])c1Cl"
test_system = "complex of human CDK4 and cyclin D3 (Homo sapiens)"
measured_metric = "pKi"
recorded_number = 7.26


Lookup: # input compound: Nc1nc(Nc2ccc(C(=O)C3COC(=O)[C@H]3N)cc2)sc1C(=O)c1c(Cl)cncc1Cl (stereo partly shown) ; wanted: its pKi
Found: 7.19

Lookup: # input compound: Cc1cccc(Br)c1C(=O)c1sc(Nc2ccc(N3CCOCC3)cc2)nc1N ; wanted: its pKi
Found: 7.28

Lookup: # input compound: Cc1ccc(C)c(C(=O)c2sc(Nc3ccc4nc[nH]c4c3)nc2N)c1C ; wanted: its pKi
Found: 7.47

Lookup: # input compound: Nc1ccc(Cl)c(C(=O)c2sc(Nc3ccc4nc[nH]c4c3)nc2N)c1Cl ; wanted: its pKi
Found: 7.64

Lookup: # input compound: Cc1ccc(C(=O)c2sc(Nc3ccc(-n4ccnc4)cc3)nc2N)c(C)c1 ; wanted: its pKi
Found: 6.46

Lookup: # input compound: CC(=O)Nc1ccc(Cl)c(C(=O)c2sc(Nc3ccc4nc[nH]c4c3)nc2N)c1Cl ; wanted: its pKi
Found: 7.35

Lookup: # input compound: Nc1nc(Nc2ccc(N3CCNCC3)cc2)sc1C(=O)c1c(Cl)cccc1Cl ; wanted: its pKi
Found: 8.62

Lookup: # input compound: Cc1c(C(=O)c2sc(Nc3ccc(S(N)(=O)=O)cc3)nc2N)ncn1C ; wanted: its pKi
Found: 5.70

Lookup: # input compound: CN1CCN(c2ccc(Nc3nc(N)c(C(=O)c4c(F)cccc4F)s3)cc2)CC1=O ; wanted: its pKi
Found: 7.99

Lookup: # input compound: NC(=O)c1ccc(Nc2nc(N)c(C(=O)c3c(F)cccc3F)s2)cc1 ; wanted: its pKi
Found: 7.68

Lookup: # input compound: Nc1nc(Nc2ccc(S(N)(=O)=O)cc2)sc1C(=O)c1c(F)cccc1C(F)(F)F ; wanted: its pKi
Found: 7.79

Lookup: # input compound: Nc1nc(Nc2ccc(S(N)(=O)=O)cc2)sc1C(=O)c1c(F)cccc1F ; wanted: its pKi
Found: 7.89

Lookup: # input compound: COC(=O)c1cccc(Nc2nc(N)c(C(=O)c3ccc4ccccc4c3)s2)c1 ; wanted: its pKi
Found: 6.36
